pKi: −log10 of the molar value.
# collection of pKi values tested on Growth hormone secretagogue receptor type 1 (Homo sapiens, UniProt Q92847)
# Sequence (Q92847 whole entry): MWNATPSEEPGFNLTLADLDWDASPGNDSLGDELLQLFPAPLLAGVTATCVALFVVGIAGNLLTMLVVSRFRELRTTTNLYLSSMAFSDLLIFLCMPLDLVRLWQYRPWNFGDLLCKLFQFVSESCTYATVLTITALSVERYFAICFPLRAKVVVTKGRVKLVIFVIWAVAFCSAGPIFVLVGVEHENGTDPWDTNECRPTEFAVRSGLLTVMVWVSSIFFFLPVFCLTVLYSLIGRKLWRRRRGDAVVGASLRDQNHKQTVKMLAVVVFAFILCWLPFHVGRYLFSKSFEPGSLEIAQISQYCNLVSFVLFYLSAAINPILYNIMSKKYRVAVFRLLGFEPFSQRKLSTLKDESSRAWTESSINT
QUANTITY KIND: pKi

ENTRY SMILES: CCc1nc(N)nc(N)c1-c1ccc(NCc2ccc(OCCF)cc2)cc1
QUANTITY KIND: pKi
QUALIFIER OPERATOR: <
OBSERVED RESULT: 5.30
//
ENTRY SMILES: Nc1nc(N)c(-c2ccc(NCc3ccc(Cl)cc3)cc2)c(COCc2ccccc2)n1
QUANTITY KIND: pKi
QUALIFIER OPERATOR: =
OBSERVED RESULT: 6.97
